FYI, the data here is from ChEMBL document CHEMBL3785075.

- assay: Elimination half life in ICR mouse at 1 mg/kg, iv by HPLC analysis
- Assay type: ADME, organism-based
- test_context: in vivo, read-out: beta t1/2 (converted)
assay_endpoint: half-life (h)
Just the number please, in h, no unit attached.

Entry under review: C[C@@H]1[C@H](O)[C@@H](C)/C=C/C=C/C=C/C=C/C=C/C=C/C=C/[C@H](O[C@@H]2O[C@H](C)[C@@H](O)[C@H](N)[C@@H]2O)C[C@@H]2O[C@](O)(C[C@@H](O)C[C@@H](O)[C@H](O)CC[C@@H](O)C[C@@H](O)CC(=O)O[C@H]1C)C[C@H](O)[C@H]2C(=O)O [AMPHOTERICIN B] . Reported half-life?
16
